Data provenance: patent US20260347338A1

Known IC50 of a selection of compounds
Biological target: human recombinant HPK1 (Homo sapiens, UniProt Q92918)
Construct: purchased BPS Bioscience
Sequence (Q92918 whole entry): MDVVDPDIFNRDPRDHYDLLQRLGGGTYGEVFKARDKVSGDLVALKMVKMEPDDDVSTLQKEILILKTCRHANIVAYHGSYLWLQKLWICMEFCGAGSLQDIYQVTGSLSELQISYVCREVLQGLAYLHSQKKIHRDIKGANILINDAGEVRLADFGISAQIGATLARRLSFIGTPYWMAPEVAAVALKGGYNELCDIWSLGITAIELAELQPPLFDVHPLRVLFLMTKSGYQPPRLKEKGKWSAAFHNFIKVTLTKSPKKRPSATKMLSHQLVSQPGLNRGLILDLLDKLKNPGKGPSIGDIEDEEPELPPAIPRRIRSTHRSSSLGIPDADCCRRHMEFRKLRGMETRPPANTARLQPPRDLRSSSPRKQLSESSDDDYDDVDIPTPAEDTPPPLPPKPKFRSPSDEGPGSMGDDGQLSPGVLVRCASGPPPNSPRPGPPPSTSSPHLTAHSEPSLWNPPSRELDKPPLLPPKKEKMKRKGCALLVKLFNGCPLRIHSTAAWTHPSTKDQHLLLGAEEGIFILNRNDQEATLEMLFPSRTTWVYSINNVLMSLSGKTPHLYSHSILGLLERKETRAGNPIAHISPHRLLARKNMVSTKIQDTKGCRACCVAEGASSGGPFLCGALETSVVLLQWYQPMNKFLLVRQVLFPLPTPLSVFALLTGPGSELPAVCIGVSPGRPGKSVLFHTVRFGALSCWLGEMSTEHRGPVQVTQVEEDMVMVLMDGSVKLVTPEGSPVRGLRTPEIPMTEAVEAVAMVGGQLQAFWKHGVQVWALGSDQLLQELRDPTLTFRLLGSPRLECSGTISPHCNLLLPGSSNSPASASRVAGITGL
Experiment: Inhibitory activity against human recombinant HPK1 (TR-FRET)
Format: biochemical
Conditions: ULight-p70S6K peptide, ATP at Km, room temperature, 1 hour, 0.32 to 1000 nM compound
Method: Test Example: Evaluation of Inhibitory Activity Against Human Recombinant HPK1 The inhibitory activity against human recombinant HPK1 was evaluated using the Time-Resolved Fluorescence Resonance Energy Transfer (TR-FRET) technology of Perkin-Elmer. […] The signals of TR-FRET at excitation wavelength (320 nm) and emission wavelength (665 nm) were detected using a microplate reader (Envision Multilabel Reader, Perkin-Elmer). […]
Counter-ions that a name gives are not always drawn.

Example entries and their recorded answers appear below.
1. COc1cccc(F)c1-c1nccc(Nc2cc(N3CCC(CO)(CC(F)F)CC3)c(-c3cnn(C4CCOCC4)c3)cn2)n1; ≤ 10 nM
2. O[C@H]1CCCN(c2cc(Nc3ccnc(-c4ccn5ncnc5c4)n3)ncc2-c2cnn(C3CCOCC3)c2)C1; 50 to 100 nM
3. COc1cccc(F)c1-c1nccc(Nc2cc(N3CC[C@@H](NC(C)=O)C3)c(-c3cnn(C4CCOCC4)c3)cn2)n1; 10 to 50 nM
4. COc1cccc(F)c1-c1nccc(Nc2cc(N3CCC[C@H](N)C3)c(-c3ccc(C(=O)N[C@H]4CC[C@H](O)CC4)cc3)cn2)n1 [Example 289, hydrochloride]; ≤ 10 nM

// next entry
Req: Returns the measured IC50 for the input compound. Input: `COc1cccc(F)c1-c1nccc(Nc2cc(N3CCC[C@H](O)C3)c(-c3ccc(C(=O)N4CCOCC4)nc3)cn2)n1`
Resp: 10 to 50 nM
